Assign target mRNA knockdown to each entry below.
conditions: siRNA; note: test system not given here
HELM strings list units from the 5' end as sugar, base in round brackets, then linkage (d deoxyribose, r ribose, m 2'-O-methyl, p phosphodiester). Strings are as the collection lists them, not checked against the first reports. ss, as = sense and antisense strand; [una] = unlocked nucleic acid
The answer is to be given in %; state only the numeric part.

stdin: Report target mRNA knockdown for RNA1{r(A)p.r(G)p.r(A)p.r(G)p.r(U)p.m(U)p.r(G)p.r(G)p.r(G)p.r(A)p.r(U)p.m(U)p.r(A)p.r(G)p.r(G)p.r(G)p.r(C)p.r(U)p.r(U)p.r(T)p.r(T)}|RNA2{r(A)p.r(A)p.r(G)p.r(C)p.r(C)p.r(C)p.m(U)p.r(A)p.r(A)p.r(U)p.r(C)p.r(C)p.m(C)p.r(A)p.r(A)p.r(C)p.r(U)p.r(C)p.r(U)p.r(T)p.r(T)}$$$RNA1{StrandType:ss}|RNA2{StrandType:as}$ please.
stdout: 68

stdin: Next substance up: RNA1{r(A)p.r(G)p.r(C)p.m(C)p.r(A)p.m(C)p.r(A)p.r(U)p.r(U)p.r(U)p.r(C)p.m(U)p.r(A)p.r(G)p.r(G)p.r(A)p.r(G)p.r(A)p.r(U)p.r(T)p.r(T)}|RNA2{r(A)p.r(U)p.r(C)p.r(U)p.r(C)p.r(C)p.m(U)p.r(A)p.m(G)p.r(A)p.r(A)p.r(A)p.r(U)p.r(G)p.m(U)p.r(G)p.r(G)p.r(C)p.r(U)p.r(T)p.r(T)}$$$RNA1{StrandType:ss}|RNA2{StrandType:as}$
stdout: 26

stdin: Next substance up: RNA1{m(A)p.r(C)p.m(C)p.r(U)p.m(U)p.r(A)p.m(A)p.r(G)p.m(G)p.r(A)p.m(C)p.r(C)p.m(A)p.r(C)p.m(C)p.r(G)p.m(G)p.r(A)p.m(U)p.r(T)p.r(T)}|RNA2{r(A)p.r(U)p.r(C)p.m(C)p.r(G)p.r(G)p.r(U)p.r(G)p.r(G)p.r(U)p.r(C)p.r(C)p.m(U)p.r(U)p.m(A)p.r(A)p.m(G)p.r(G)p.m(U)p.r(T)p.r(T)}$$$RNA1{StrandType:ss}|RNA2{StrandType:as}$
stdout: 52

stdin: Next substance up: RNA1{r(G)p.r(U)p.r(A)p.r(U)p.r(G)p.r(A)p.r(C)p.r(C)p.r(G)p.r(A)p.r(C)p.r(U)p.r(A)p.r(C)p.r(G)p.r(C)p.r(G)p.r(U)p.r(A)p.r(T)p.r(T)}|RNA2{r(U)p.r(U)p.r(C)p.r(A)p.r(G)p.r(U)p.r(G)p.r(U)p.r(G)p.r(A)p.r(U)p.r(G)p.r(A)p.r(C)p.r(A)p.r(C)p.r(U)p.r(U)p.r(G)p.[una](T)p.[una](T)}$$$RNA1{StrandType:ss}|RNA2{StrandType:as}$
stdout: 81

stdin: Next substance up: RNA1{r(C)p.m(U)p.r(A)p.r(G)p.r(U)p.r(C)p.r(G)p.r(A)p.m(A)p.r(A)p.r(G)p.r(A)p.m(A)p.m(A)p.r(A)p.r(C)p.r(G)p.r(G)p.r(G)p.r(T)p.r(T)}|RNA2{r(C)p.r(C)p.r(C)p.r(G)p.r(U)p.r(U)p.r(U)p.r(U)p.r(C)p.r(U)p.r(U)p.r(U)p.r(C)p.r(G)p.r(A)p.r(C)p.m(U)p.r(A)p.r(G)p.r(T)p.r(T)}$$$RNA1{StrandType:ss}|RNA2{StrandType:as}$
stdout: 55
